- target_of_assay: T1, Suv3 (human, UniProt Q8IYB8 48-786)
- T1 sequence: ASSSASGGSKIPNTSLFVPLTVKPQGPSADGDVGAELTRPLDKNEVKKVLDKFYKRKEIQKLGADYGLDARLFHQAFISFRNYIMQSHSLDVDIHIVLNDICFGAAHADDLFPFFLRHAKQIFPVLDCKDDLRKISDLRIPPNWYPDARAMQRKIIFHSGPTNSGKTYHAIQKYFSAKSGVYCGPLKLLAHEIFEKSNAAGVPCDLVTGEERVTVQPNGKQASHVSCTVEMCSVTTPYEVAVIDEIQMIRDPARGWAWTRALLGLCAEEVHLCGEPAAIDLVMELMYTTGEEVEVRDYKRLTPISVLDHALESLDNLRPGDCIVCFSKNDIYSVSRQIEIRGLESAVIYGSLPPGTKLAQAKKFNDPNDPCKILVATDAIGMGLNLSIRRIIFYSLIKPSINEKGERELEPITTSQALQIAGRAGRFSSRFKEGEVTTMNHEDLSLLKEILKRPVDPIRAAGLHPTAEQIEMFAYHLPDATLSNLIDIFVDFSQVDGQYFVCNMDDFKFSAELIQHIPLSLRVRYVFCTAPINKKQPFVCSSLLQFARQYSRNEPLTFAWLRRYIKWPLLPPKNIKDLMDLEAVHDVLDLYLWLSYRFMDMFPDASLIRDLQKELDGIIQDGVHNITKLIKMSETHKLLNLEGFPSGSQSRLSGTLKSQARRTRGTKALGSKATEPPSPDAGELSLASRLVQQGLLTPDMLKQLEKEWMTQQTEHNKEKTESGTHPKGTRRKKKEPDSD
- test_protocol: fluorescence polarization
result_type: Kd

Solved entries (count: 2):
dsRNA 5-nt 3' overhang (dsRNA) RNA 1: GGUGUGGUGGCAUACGUGCAGACGC RNA 2: GCGUCUGCACGUAUGCCACCACACCAGGAG | ~65 nM
dsRNA 20-nt 3' overhang (dsRNA) RNA 1: GGUGUGGUGGCAUACGUGCAGACGC RNA 2: GCGUCUGCACGUAUGCCACCACACCAGGAGAGGAGAGGAGAGGAG | ~18 nM

Here is another binder to look at.
Value of Kd reported for the binder dsRNA 15-nt 3' overhang (dsRNA) RNA 1: GGUGUGGUGGCAUACGUGCAGACGC RNA 2: GCGUCUGCACGUAUGCCACCACACCAGGAGAGGAGAGGAG is ~18 nM

The reported measurements were obtained from paper PMC9044407.
